# reported fold change of affinity; entries follow
- measured.target: T1, Human CD3eg linker (human)
- T1 construct: single-chain construct; also called recombinant human CD3
- T1 chain: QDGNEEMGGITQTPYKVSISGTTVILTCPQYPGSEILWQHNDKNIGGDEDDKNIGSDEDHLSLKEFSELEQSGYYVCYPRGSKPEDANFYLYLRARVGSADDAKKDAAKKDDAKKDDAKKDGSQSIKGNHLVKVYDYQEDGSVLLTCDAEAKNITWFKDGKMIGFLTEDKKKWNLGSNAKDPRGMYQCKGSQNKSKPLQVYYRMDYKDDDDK
- method.summary: SPR, vs unmutated H183/L072
Respond with the bare value in fold.

binder	fold change of affinity / fold
dBBDu183H V100iF/dBBDu072L (antibody, name in Kabat numbering, V domains shown) VH: QVQLVESGGGLVQPGRSLRLSCAASGFTFSNAWMHWVRQAPGKGLEWVAQIKDKGNAYAAYYAPSVKGRFTISRDDSKNSIYLQMNSLKTEDTAVYYCHYVHYASASTVLPAFGFDAWGQGTTVTVSS VL: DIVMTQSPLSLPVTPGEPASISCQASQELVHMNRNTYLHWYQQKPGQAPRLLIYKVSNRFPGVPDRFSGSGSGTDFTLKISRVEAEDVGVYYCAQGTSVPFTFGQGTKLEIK	3.2
dBBDu183H S62W/dBBDu072L (antibody, name in Kabat numbering, V domains shown) VH: QVQLVESGGGLVQPGRSLRLSCAASGFTFSNAWMHWVRQAPGKGLEWVAQIKDKGNAYAAYYAPWVKGRFTISRDDSKNSIYLQMNSLKTEDTAVYYCHYVHYASASTVLPAFGVDAWGQGTTVTVSS VL: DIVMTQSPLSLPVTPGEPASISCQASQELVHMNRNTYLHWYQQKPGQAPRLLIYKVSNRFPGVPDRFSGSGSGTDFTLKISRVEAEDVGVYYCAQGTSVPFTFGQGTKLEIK	2
dBBDu183H G65W/dBBDu072L (antibody, name in Kabat numbering, V domains shown) VH: QVQLVESGGGLVQPGRSLRLSCAASGFTFSNAWMHWVRQAPGKGLEWVAQIKDKGNAYAAYYAPSVKWRFTISRDDSKNSIYLQMNSLKTEDTAVYYCHYVHYASASTVLPAFGVDAWGQGTTVTVSS VL: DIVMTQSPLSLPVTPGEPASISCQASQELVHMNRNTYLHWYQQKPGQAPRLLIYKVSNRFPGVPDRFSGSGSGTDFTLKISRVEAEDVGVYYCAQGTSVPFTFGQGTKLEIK	1

For reference, reported fold change of affinity for dBBDu183H V100iS/dBBDu072L (antibody, name in Kabat numbering, V domains shown) VH: QVQLVESGGGLVQPGRSLRLSCAASGFTFSNAWMHWVRQAPGKGLEWVAQIKDKGNAYAAYYAPSVKGRFTISRDDSKNSIYLQMNSLKTEDTAVYYCHYVHYASASTVLPAFGSDAWGQGTTVTVSS VL: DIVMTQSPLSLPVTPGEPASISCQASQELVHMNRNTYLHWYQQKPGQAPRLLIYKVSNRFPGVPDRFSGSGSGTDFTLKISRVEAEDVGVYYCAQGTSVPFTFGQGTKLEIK stands at 1.9

For reference, reported fold change of affinity for dBBDu183H L100dH/dBBDu072L (antibody, name in Kabat numbering, V domains shown) VH: QVQLVESGGGLVQPGRSLRLSCAASGFTFSNAWMHWVRQAPGKGLEWVAQIKDKGNAYAAYYAPSVKGRFTISRDDSKNSIYLQMNSLKTEDTAVYYCHYVHYASASTVHPAFGVDAWGQGTTVTVSS VL: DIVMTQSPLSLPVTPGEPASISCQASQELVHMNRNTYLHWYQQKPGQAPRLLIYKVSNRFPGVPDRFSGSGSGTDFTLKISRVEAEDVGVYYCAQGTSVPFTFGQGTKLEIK stands at 1.3
